Attribution: the supplement of paper PMC12645437

Target: T1, CRBN, Q96SW2;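 also: pooled lentiviral library of zinc finger degron-EGFP fusions in mCherry-positive Jurkat cells, FACS-sorted after compound exposure, with degron abundance counted by next-generation sequencing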
T1 chain: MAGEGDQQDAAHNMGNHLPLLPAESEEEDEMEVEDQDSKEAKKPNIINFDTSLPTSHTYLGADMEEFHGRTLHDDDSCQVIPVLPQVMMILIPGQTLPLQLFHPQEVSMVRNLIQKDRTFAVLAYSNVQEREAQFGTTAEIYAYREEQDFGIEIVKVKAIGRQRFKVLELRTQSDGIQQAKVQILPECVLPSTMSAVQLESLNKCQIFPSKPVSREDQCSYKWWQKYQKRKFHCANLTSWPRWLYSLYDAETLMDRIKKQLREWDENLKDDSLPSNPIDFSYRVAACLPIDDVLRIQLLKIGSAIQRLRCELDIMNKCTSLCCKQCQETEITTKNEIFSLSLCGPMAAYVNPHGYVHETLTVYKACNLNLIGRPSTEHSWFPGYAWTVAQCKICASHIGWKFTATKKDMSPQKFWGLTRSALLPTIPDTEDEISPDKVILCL
Test: log2 fold change of degron read counts, EGFP-low vs EGFP+ sorted cells (limma voom), compound-induced degradation; higher = more compound-induced degradation of the degron-EGFP fusion; degrons are variants of IKZF1/3 zinc finger 2; compound dose not given here
Conditions: Jurkat; 18 h; compound: compound 22 (5-morpholino-thalidomide)
In all, about 8,300 sequences were measured (“log2 fold change of degron read counts, EGFP-low vs EGFP+ sorted cells (limma voom), compound-induced degradation”: median about -1.1, highest 2% from about 3.2 on). Many of the other results were omitted from the sample, so the highest values are more common in it than they were.
Lab note: anything with log2 fold change of degron read counts at or over -2 counts as yes (1); the rest go in no (0).

Reference set, count: 8
RESIDUE_STRING | LABEL_CLASS
LGCEICGFFCTQKGNLLRHIKL [46L_47G_49E_50I_52G_53F_54F_55C_67L_, Q9UKT9] | yes (1)
FRCDVCGAKFTQKGNLLRHIKL [46F_47R_49D_50V_52G_53A_54K_55F_67L_, Q9UKT9] | yes (1)
FMCEICGAIFTQKGNLLRHIKL [46F_47M_49E_50I_52G_53A_54I_55F_67L_, Q9UKT9] | yes (1)
FICPICGAVFTQKGNLLRHIKL [46F_47I_49P_50I_52G_53A_54V_55F_67L_, Q9UKT9] | yes (1)
FVCNQCGACFTQKGNLLRHIKL [46F_47V_49N_50Q_52G_53A_54C_55F_67L_, Q9UKT9] | no (0)
FACPVCGAMFTQKGNLLRHIKL [46F_47A_49P_50V_52G_53A_54M_55F_67L_, Q9UKT9] | yes (1)
FACPICGAVFTQKGNLLRHIKL [46F_47A_49P_50I_52G_53A_54V_55F_67L_, Q9UKT9] | yes (1)
LACPICGFNCTQKGNLLRHIKL [46L_47A_49P_50I_52G_53F_54N_55C_67L_, Q9UKT9] | yes (1)

Assess whether reported log2 fold change of degron read counts for FECDVCGAWFTQKGNLLRHIKL [46F_47E_49D_50V_52G_53A_54W_55F_67L_, Q9UKT9] sits at -2 or higher.
no (0)

Reported log2 fold change of degron read counts at or above -2? FNCPVCGAMFTQKGNLLRHIKL [46F_47N_49P_50V_52G_53A_54M_55F_67L_, Q9UKT9]
yes (1)

Tell me whether log2 fold change of degron read counts is at least -2 here: FRCPQCGADFTQKGNLLRHIKL [46F_47R_49P_50Q_52G_53A_54D_55F_67L_, Q9UKT9]
no (0)

Evaluate FECEICGRDFTQKGNLLRHIKL [46F_47E_49E_50I_52G_53R_54D_55F_67L_, Q9UKT9] : log2 fold change of degron read counts at minimum -2?
no (0)

Identify whether the reported log2 fold change of degron read counts of the following sequence is -2 or greater: FWCEICGHIFTQKGNLLRHIKL [46F_47W_49E_50I_52G_53H_54I_55F_67L_, Q9UKT9]
yes (1)

Is log2 fold change of degron read counts for LICPICGFRCTQKGNLLRHIKL [46L_47I_49P_50I_52G_53F_54R_55C_67L_, Q9UKT9] at or above -2?
yes (1)

Evaluate FTCSVCGHSFTQKGNLLRHIKL [46F_47T_49S_50V_52G_53H_54S_55F_67L_, Q9UKT9] : log2 fold change of degron read counts at minimum -2?
no (0)

Given the entry FQCEICGAIFTQKGNLLRHIKL [46F_47Q_49E_50I_52G_53A_54I_55F_67L_, Q9UKT9] , answer whether its log2 fold change of degron read counts meets or surpasses -2.
yes (1)

Assess whether reported log2 fold change of degron read counts for FGCPVCGAMFTQKGNLLRHIKL [46F_47G_49P_50V_52G_53A_54M_55F_67L_, Q9UKT9] sits at -2 or higher.
yes (1)

Is log2 fold change of degron read counts at least -2? Consider LDCPICGFNCTQKGNLLRHIKL [46L_47D_49P_50I_52G_53F_54N_55C_67L_, Q9UKT9]
yes (1)

Please check the record FLCPICGRGFTQKGNLLRHIKL [46F_47L_49P_50I_52G_53R_54G_55F_67L_, Q9UKT9] and state if its log2 fold change of degron read counts is at or above -2.
yes (1)

Say whether FNCDICGAEFTQKGNLLRHIKL [46F_47N_49D_50I_52G_53A_54E_55F_67L_, Q9UKT9] shows log2 fold change of degron read counts of -2 or more.
yes (1)

Determine whether this sequence has log2 fold change of degron read counts no lower than -2: FTCPICGAVFTQKGNLLRHIKL [46F_47T_49P_50I_52G_53A_54V_55F_67L_, Q9UKT9]
yes (1)

# bool: log2 fold change of degron read counts of FVCNQCGHRFTQKGNLLRHIKL [46F_47V_49N_50Q_52G_53H_54R_55F_67L_, Q9UKT9] >= -2
no (0)

Determine whether measured log2 fold change of degron read counts meets or exceeds -2 for LWCPICGFRCTQKGNLLRHIKL [46L_47W_49P_50I_52G_53F_54R_55C_67L_, Q9UKT9]
yes (1)

Can LWCPICGFNCTQKGNLLRHIKL [46L_47W_49P_50I_52G_53F_54N_55C_67L_, Q9UKT9] be said to have log2 fold change of degron read counts at or above -2?
yes (1)
